tested on: anti-HAV-positive sera; experiment: EIA for anti-HAV: synthetic peptides adsorbed to wells, reacted with anti-HAV-positive acute sera; assay type: binding, human; conditions: experiment 1; OD493 positive/negative ratio of reactive sera
Would you mind labelling by P/N for acute sera (mean)? At or over 6 is TRUE, under is FALSE.

Consider the following illustrative entries.
{"Seq string": "MLSKYSLPIVEEPEDYKEAS [YK-1399]", "Label class": "TRUE"}
{"Seq string": "AKKVPETFPELKPGESRHTS [YK-1273]", "Label class": "FALSE"}
{"Seq string": "DRTAVTGASYFTSVDQSSVH [YK-1208]", "Label class": "FALSE"}
{"Seq string": "DHMSIYKFMGRSHFLCTFTF [YK-1276]", "Label class": "FALSE"}
{"Seq string": "FSQAKISLFYTEEHEIMKFS [YK-1319]", "Label class": "FALSE"}

Query: In plain terms: is recorded P/N for acute sera (mean) at least 6 for QNVPDPQVGITTMKDLKGKA [YK-1266] ?
Reply: TRUE

Query: In plain terms: is recorded P/N for acute sera (mean) at least 6 for RIMKVEFTQCSMNVVSKTLF [YK-1394] ?
Reply: TRUE

====

In this section we review reported P/N for acute sera (mean) values for a set of sequences.
system: anti-HAV-positive sera; experiment: EIA for anti-HAV: synthetic peptides adsorbed to wells, reacted with anti-HAV-positive acute sera; format: binding, human; conditions: experiment 1; OD493 positive/negative ratio of reactive sera
Write no unit; give the number alone.

{"Seq string": "LNMASLEEKGRHFSSPFIIA [YK-1357]", "Study target": "anti-HAV-positive sera", "Assay readout": "P/N for acute sera (mean)", "Endpoint value": 4.49}

Lab note: sequence DKPGSKKTQGEKFFLIHSAD [YK-1212] tested on anti-HAV-positive sera; recorded P/N for acute sera (mean) was 3.5

Lab note: sequence KNDGTTVDLTVDQAWRGKGE [YK-1389] tested on anti-HAV-positive sera; recorded P/N for acute sera (mean) was 10.33

Lab note: sequence KVNFPHGMLDLEEIAANSKD [YK-1327] tested on anti-HAV-positive sera; recorded P/N for acute sera (mean) was 6.16

Lab note: sequence LYNEQFAVQGLLRYHTYARF [YK-1215] tested on anti-HAV-positive sera; recorded P/N for acute sera (mean) was 5.29

Lab note: sequence ITTIEDPVLAKKVPETFPEL [YK-1271] tested on anti-HAV-positive sera; recorded P/N for acute sera (mean) was 4.97

Lab note: sequence FTQCSMNVVSKTLFRKSPIY [YK-1395] tested on anti-HAV-positive sera; recorded P/N for acute sera (mean) was 6.52

====

test system: anti-HAV-positive sera; test: EIA for anti-HAV: synthetic peptides adsorbed to wells, reacted with anti-HAV-positive acute sera; assay type: binding, human; conditions: experiment 1; OD493 positive/negative ratio of reactive sera
Mark yes for P/N for acute sera (mean) under 6, no if at or over.

Consider the following illustrative entries.
{"Seq string": "EPLRTSVDKPGSKKTQGEKF [YK-1211]", "Label class": "no"}
{"Seq string": "TKPVASDYWDGYSGQLVCII [YK-1352]", "Label class": "yes"}
{"Seq string": "HFLCTFTFNSNNKEYTFPIT [YK-1279]", "Label class": "yes"}

# ---- query sequence ----
Query: Say whether its P/N for acute sera (mean) is strictly beneath 6. Entry: RGKGEGLPGMCGGALVSSNQ [YK-1390]
Reply: no
